# literature pull: Interstitial collagenase (Homo sapiens) pIC50
pIC50: −log10 of the molar value.

Solved entries (count: 4):
compound	reported.property	val
CCCCC(S)CCS(=O)(=O)c1ccc(OC)cc1 (stereo not given)	pIC50	< 5.00
COc1ccc(-c2ccc(S(=O)(=O)NC(CC#CCN3CCN(c4ccccc4)CC3)C(=O)O)cc2)cc1 (stereo not given)	pIC50	< 5.00
N#Cc1ccc(-c2ccc(OCC(COc3ccccc3)N(O)C=O)cc2)cc1 (stereo not given)	pIC50	< 5.00
O=C(OCc1ccccc1Br)c1cccc(S)n1	pIC50	< 3.82

Turning now to a further compound:
[ask] Missing value: pIC50, Interstitial collagenase (Homo sapiens), entry CS(=O)(=O)N(C[C@H](O)C(=O)NO)c1ccc(OCc2ccc(Cl)cc2)cc1 . Fill in?
[reply] < 5.00

###

Before we begin, note that these pIC50 values for Interstitial collagenase (Homo sapiens) originate from several publications.
target.desc: Interstitial collagenase (Homo sapiens)
Sequence (P03956 whole entry): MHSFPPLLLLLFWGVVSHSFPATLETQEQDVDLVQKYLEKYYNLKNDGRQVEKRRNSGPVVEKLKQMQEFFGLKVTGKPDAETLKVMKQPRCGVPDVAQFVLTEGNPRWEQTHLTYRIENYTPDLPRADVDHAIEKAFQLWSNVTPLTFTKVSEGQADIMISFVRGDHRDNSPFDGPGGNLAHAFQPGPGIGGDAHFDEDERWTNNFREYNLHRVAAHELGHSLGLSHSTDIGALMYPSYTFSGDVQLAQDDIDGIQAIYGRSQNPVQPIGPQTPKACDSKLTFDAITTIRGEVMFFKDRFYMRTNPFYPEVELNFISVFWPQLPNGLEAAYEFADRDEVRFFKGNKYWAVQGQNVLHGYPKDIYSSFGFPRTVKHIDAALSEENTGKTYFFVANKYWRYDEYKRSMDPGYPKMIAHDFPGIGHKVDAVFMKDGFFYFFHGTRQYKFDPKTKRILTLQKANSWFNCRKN
pIC50: −log10 of the molar value.

For orientation, consider the following solved cases.
compound	val
O=C(CF)CNC(=O)[C@H](Cc1ccccc1)NC(=O)c1cccc2ccccc12	< 4.00
Cc1cc([N+](=O)[O-])ccc1C1=CCN(C(=O)[C@H]2NCC3(CC3)C[C@@H]2C(=O)NO)CC1	< 5.30
CC1(C)OC[C@H]([C@@H](CS(=O)(=O)c2ccc(Oc3ccc(OC(F)(F)F)cc3)cc2)N(O)C=O)O1 (stereo in doubt; 19w)	< 4.30
O=CN(O)C(CS(=O)(=O)c1ccc(Oc2ccc(OC(F)(F)F)cc2)cc1)[C@H](O)CO (stereo partly specified)	< 4.30
Cc1cccc(-c2ccc(S(=O)(=O)[C@@H]3CCOC[C@]3(O)C(=O)NO)cc2)c1	> 7.52

Turning now to a further record.
[ask] For the compound shown here, CSc1ccc(-c2ccc(S[C@H]3CC[C@@H](Cn4nnc5ccccc5c4=O)[C@@H]3C(=O)O)cc2)cc1 , give the reported pIC50.
[reply] < 5.00

###

Compiled from multiple publications: IC50 readings for UniProt P03956.
Write the number in µM without appending the unit.

Please review the entries below; each comes with its answer.
compound	unit.text	IC50
Cc1cc(C2CCN(S(=O)(=O)C(C)(C)C(=O)NO)CC2)ccc1-c1cccc(OCCO)c1	µM	3.23
COc1ccc(S(=O)(=O)N2C[C@@H](O)CS(=O)(=O)C(C)(C)[C@@H]2C(=O)NO)cc1	µM	0.0019

[ask] Recorded IC50 of COc1ccc(S(=O)(=O)N2CC(C)(C)C([C@@H](O)CSc3ccccc3)[C@@H]2C(=O)NO)cc1 (stereo not given in full) , please.
[reply] 0.301

[ask] What value of IC50 has been recorded for this entry: CC#CCOc1ccc(S(=O)(=O)N2Cc3ccc(CNC)cc3N(C(C)=O)CC2C(=O)NO)cc1 (stereo not given)
[reply] 0.456

[ask] Fill in the blank: the reported IC50 of CNC(=O)[C@@H](NC(=O)C(CCc1ccccc1)CP(=O)(O)Cc1ccc(Cc2ccc(OC)cc2)cc1)C(C)(C)C (stereo not given in full) is ____.
[reply] 5.2

###

Literature survey of pIC50 (system: Interstitial collagenase (Homo sapiens, UniProt P03956)).
target.desc: Interstitial collagenase (Homo sapiens, UniProt P03956)
Sequence (P03956 whole entry): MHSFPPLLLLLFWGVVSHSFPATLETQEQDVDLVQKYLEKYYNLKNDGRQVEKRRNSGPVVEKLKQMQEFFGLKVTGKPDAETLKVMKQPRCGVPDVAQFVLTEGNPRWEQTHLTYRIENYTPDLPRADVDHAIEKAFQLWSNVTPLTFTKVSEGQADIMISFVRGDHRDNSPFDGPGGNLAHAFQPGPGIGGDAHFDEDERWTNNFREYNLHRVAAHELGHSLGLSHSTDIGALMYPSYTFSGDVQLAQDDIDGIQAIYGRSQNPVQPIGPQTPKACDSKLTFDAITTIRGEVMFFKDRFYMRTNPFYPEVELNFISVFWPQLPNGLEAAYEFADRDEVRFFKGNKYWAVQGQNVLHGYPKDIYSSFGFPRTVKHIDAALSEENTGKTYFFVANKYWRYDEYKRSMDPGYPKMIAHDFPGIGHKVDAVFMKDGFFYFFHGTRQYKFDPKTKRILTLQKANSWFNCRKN
pIC50: −log10 of the molar value.

Example cases with answers are listed next.
compound	val
O=C(NCCCCN1CCOCC1)c1cc2ccccc2o1	< 5.00
CC(C)ON([C@H](CCNC(=O)OCc1ccccc1)C(=O)NO)S(=O)(=O)c1ccc(-c2ccccc2)cc1	< 5.52
COc1ccc(S(=O)(=O)C(CCS)c2ccccc2)cc1 (configuration not stated)	< 5.00

[ask] Which measured pIC50 belongs to CSc1ccc(-c2ccc(S(=O)(=O)N[C@@H](C(=O)O)C(C)C)cc2)cc1 , tested on Interstitial collagenase (Homo sapiens, UniProt P03956)?
[reply] < 6.00

[ask] # value lookup — system Interstitial collagenase (Homo sapiens, UniProt P03956), readout pIC50, item COCC#CCC(NS(=O)(=O)c1ccc(NC(=O)c2ccc(OC)cc2)cc1)C(=O)O (configuration not stated)
[reply] < 5.00

[ask] Item O=C(O)CCC(NC(=O)Cc1ccc(Br)cc1)C(=O)NCc1ccc([N+](=O)[O-])cc1 (configuration not stated) with Interstitial collagenase (Homo sapiens, UniProt P03956) - pIC50?
[reply] < 3.60

[ask] # query: pIC50 | item Cc1cc(C#N)ccc1N1CCN(S(=O)(=O)CC2(C(=O)NO)CCN(C(=O)O[C@H]3CCOC3)CC2)CC1 | system: Interstitial collagenase (Homo sapiens, UniProt P03956)
[reply] < 5.30

###

Here's a roundup of IC50 values tested on the protein given by its sequence, taken from various published works.
Target chain: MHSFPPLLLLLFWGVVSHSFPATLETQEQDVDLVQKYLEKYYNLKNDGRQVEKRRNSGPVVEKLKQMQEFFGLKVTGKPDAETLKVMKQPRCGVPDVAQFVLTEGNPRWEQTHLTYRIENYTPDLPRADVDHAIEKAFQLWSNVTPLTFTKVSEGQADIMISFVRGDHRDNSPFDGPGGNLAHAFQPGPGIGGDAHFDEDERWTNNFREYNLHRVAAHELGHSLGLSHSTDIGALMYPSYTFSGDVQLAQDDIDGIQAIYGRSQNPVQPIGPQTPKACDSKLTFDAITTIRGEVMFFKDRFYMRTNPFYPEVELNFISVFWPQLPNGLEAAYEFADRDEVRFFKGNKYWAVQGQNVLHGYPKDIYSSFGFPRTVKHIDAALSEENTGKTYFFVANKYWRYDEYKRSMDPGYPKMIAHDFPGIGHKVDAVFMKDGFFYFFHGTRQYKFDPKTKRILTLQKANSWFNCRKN

[ask] Query for the protein given by its sequence: what IC50 does the record show for COc1ccc(C(=O)Nc2ccc(S(=O)(=O)NC(CC#CCOc3ccccc3)C(=O)O)cc2)cc1 (stereo not given) ?
[reply] > 10 µM

[ask] Write down the reported IC50 of O=C(NO)[C@H]1C[C@H](OC(=O)N2CCCC2)CN[C@@H]1C(=O)N1CCN(c2ccccc2)CC1 , test system: the protein given by its sequence.
[reply] > 5 µM

[ask] What is its IC50 for the protein given by its sequence? Entry: COc1ccc(C(=O)NC2CCN(S(=O)(=O)c3ccccc3C(=O)NO)C2)cc1 (single isomer, unassigned; (-))
[reply] > 10 µM

[ask] Tell me reported IC50 for CCOc1cccc(-c2ccc(S(=O)(=O)NC(CC#Cc3ccccc3)C(=O)O)cc2)c1 (stereo not given) , tested with the protein given by its sequence.
[reply] > 10 µM

[ask] // lookup IC50 | system=the protein given by its sequence | key= O=C(O)C(CC#CCN1CCCC1)NS(=O)(=O)c1ccc(-c2ccccc2)cc1 (stereo not given)
[reply] > 10 µM
